Listing of entries alongside the reported IC50.
- system: c-Met kinase (Homo sapiens, UniProt P08581)
- Construct: c-Met kinase domain recombinant protein diluted with 49 μL of the reaction buffer was added
- Sequence (P08581 1078-1345 limits assumed): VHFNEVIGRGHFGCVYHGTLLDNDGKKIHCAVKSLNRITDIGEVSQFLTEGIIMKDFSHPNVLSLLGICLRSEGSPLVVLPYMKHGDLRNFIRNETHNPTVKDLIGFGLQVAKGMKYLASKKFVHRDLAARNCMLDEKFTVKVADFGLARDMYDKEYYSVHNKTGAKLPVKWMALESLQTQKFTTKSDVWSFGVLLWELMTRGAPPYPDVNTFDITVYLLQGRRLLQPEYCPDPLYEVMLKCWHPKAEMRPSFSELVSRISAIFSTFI
- protocol.text: Inhibitory effect on c-Met kinase activity at molecular level (ELISA)
measured.quantity: IC50

>>> obs_value("C[C@H]1COCCN1CCOc1cc2nccc(Oc3ccc(NC(=O)C4(C(=O)Nc5ccc(F)cc5)CC4)cc3F)c2cn1 [Compound 29S]")
"10 to 100 nM"
>>> obs_value("O=C(Nc1ccc(F)cc1)C1(C(=O)Nc2ccc(Oc3ccnc4cc(-c5cncnc5)ncc34)c(F)c2)CC1 [Compound 47S]")
"1 to 10 nM"
>>> obs_value("O=C(Nc1ccc(F)cc1)C1(C(=O)Nc2ccc(Oc3ccnc4[nH]c(=O)cnc34)c(F)c2)CC1 [Compound 33S]")
"100 to 1000 nM"
>>> obs_value("O=C(Nc1ccc(F)cc1)C1(C(=O)Nc2ccc(Oc3ccnc4cc(-c5ccc(N6CCOCC6)cc5)ncc34)c(F)c2)CC1 [Compound 50S]")
"10 to 100 nM"

###

- system: c-Met kinase (Homo sapiens, UniProt P08581)
- Construct: c-Met kinase domain recombinant protein diluted with 49 μL of the reaction buffer was added
- protocol.text: Inhibitory effect on c-Met kinase activity at molecular level (ELISA)
pIC50: −log10 of the molar value.
Listing of entries alongside the reported pIC50.
measured.quantity: pIC50

>>> obs_value("O=C(Nc1ccc(F)cc1)C1(C(=O)Nc2ccc(Oc3ccnc4cc(-c5cn[nH]c5)ncc34)c(F)c2)CC1 [Compound 39S]")
"8.00 to 9.00"
>>> obs_value("O=C(Nc1ccc(F)cc1)C1(C(=O)Nc2ccc(Oc3ccnc4nc(Cl)cnc34)c(F)c2)CC1 [Compound 55S]")
"7.00 to 8.00"
>>> obs_value("Cn1cc(-c2cc3nccc(Oc4ccc(NC(=O)C5(C(=O)Nc6ccc(F)cc6)CC5)cc4F)c3cn2)cn1 [Compound 38S]")
"8.00 to 9.00"
>>> obs_value("O=C(Nc1ccc(F)cc1)C1(C(=O)Nc2ccc(Oc3ccnc4nc(OCCCN5CCOCC5)cnc34)c(F)c2)CC1 [Compound 61S]")
"7.00 to 8.00"
>>> obs_value("O=C(Nc1ccc(Oc2ccnc3c(Br)c(OCCN4CCOCC4)ncc23)c(F)c1)c1c[nH]cc(-c2ccccc2)c1=O [Compound 19S]")
"7.00 to 8.00"
>>> obs_value("O=C(Cc1ccccc1)Nc1ccc(Oc2ccnc3c(Br)c(OCCN4CCOCC4)ncc23)c(F)c1 [Compound 18S]")
"6.00 to 7.00"
>>> obs_value("CC(CN1CCOCC1)Oc1cc2nccc(Oc3ccc(NC(=O)C4(C(=O)Nc5ccc(F)cc5)CC4)cc3F)c2cn1 (stereo not shown) [Compound 26S]")
"7.00 to 8.00"

###

- protocol.text: Pharmacokinetic test in rats
- Type: in vivo, Sprague-Dawley rats
- condition.set: male, Sprague-Dawley, plasma, po; rat, intragastric (gavage) 10 mg/kg, mean
measured.quantity: half-life (h)

>>> obs_value("O=C(Nc1ccc(F)cc1)C1(C(=O)Nc2ccc(Oc3ccnc4cc(OCCN5CCOCC5)ncc34)c(F)c2)CC1 [Compound 7S]")
1.66
>>> obs_value("O=C(Nc1ccc(F)cc1)C1(C(=O)Nc2ccc(Oc3ccnc4cc(OCCCN5CCOCC5)ncc34)c(F)c2)CC1 [Compound 8S]")
1.49

###

- Test system: EBC-1 cells
- protocol.text: Inhibition of c-Met-mediated EBC-1 cell proliferation (SRB staining)
- Type: cell-based
- condition.set: Homo sapiens, 72 hours treatment
measured.quantity: IC50

>>> obs_value("Cc1noc(C)c1-c1cc2nccc(Oc3ccc(NC(=O)C4(C(=O)Nc5ccc(F)cc5)CC4)cc3F)c2cn1 [Compound 45S]")
"1000 to 10000 nM"
>>> obs_value("O=C(Nc1ccc(Oc2ccnc3cc(OCCN4CCOCC4)ncc23)c(F)c1)c1c[nH]cc(-c2ccc(F)cc2)c1=O [Compound 22S]")
"10 to 100 nM"
>>> obs_value("CN1CCC(COc2cc3nccc(Oc4ccc(NC(=O)C5(C(=O)Nc6ccc(F)cc6)CC5)cc4F)c3cn2)CC1")
"10 to 100 nM"
>>> obs_value("O=C(Nc1ccc(F)cc1)C1(C(=O)Nc2ccc(Nc3ccnc4cc(OCCN5CCOCC5)ncc34)cc2)CC1 [Compound 13S]")
"100 to 1000 nM"

###

- protocol.text: Pharmacokinetic test in rats
- Assay type: in vivo, Sprague-Dawley rats
- condition.set: male, Sprague-Dawley, plasma; rat, intravenous 5 mg/kg, mean
Listing of entries alongside the reported half-life.
measured.quantity: half-life (h)

>>> obs_value("O=C(Nc1ccc(F)cc1)C1(C(=O)Nc2ccc(Oc3ccnc4cc(OCCCN5CCOCC5)ncc34)c(F)c2)CC1")
1.15
>>> obs_value("O=C(Nc1ccc(F)cc1)C1(C(=O)Nc2ccc(Oc3ccnc4cc(OCCN5CCOCC5)ncc34)c(F)c2)CC1")
1

###

- protocol.text: Pharmacokinetic test in rats
- Type: in vivo, Sprague-Dawley rats
- condition.set: male, Sprague-Dawley, plasma, oral; rat, gavage 10 mg/kg vs intravenous 5 mg/kg; read-out: F (absolute bioavailability)
Listing of entries alongside the reported bioavailability.
measured.quantity: bioavailability (%)

>>> obs_value("O=C(Nc1ccc(F)cc1)C1(C(=O)Nc2ccc(Oc3ccnc4cc(OCCCN5CCOCC5)ncc34)c(F)c2)CC1 [Compound 8S]")
38.6
>>> obs_value("O=C(Nc1ccc(F)cc1)C1(C(=O)Nc2ccc(Oc3ccnc4cc(OCCN5CCOCC5)ncc34)c(F)c2)CC1 [Compound 7S]")
51.8

###

Listing of entries alongside the reported Tmax.
- protocol.text: Pharmacokinetic test in rats
- Format: in vivo, Sprague-Dawley rats
- condition.set: male, Sprague-Dawley, plasma, po; rat, intragastric (gavage) 10 mg/kg, mean
measured.quantity: Tmax

>>> obs_value("O=C(Nc1ccc(F)cc1)C1(C(=O)Nc2ccc(Oc3ccnc4cc(OCCN5CCOCC5)ncc34)c(F)c2)CC1")
"1.75 h"
>>> obs_value("O=C(Nc1ccc(F)cc1)C1(C(=O)Nc2ccc(Oc3ccnc4cc(OCCCN5CCOCC5)ncc34)c(F)c2)CC1")
"1.25 h"

###

- protocol.text: Pharmacokinetic test in rats
- Format: in vivo, Sprague-Dawley rats
- condition.set: male, Sprague-Dawley, rat, plasma, iv, 5 mg/kg, intravenous 5 mg/kg, mean, read-out: MRT
measured.quantity: MRT (h)

>>> obs_value("O=C(Nc1ccc(F)cc1)C1(C(=O)Nc2ccc(Oc3ccnc4cc(OCCN5CCOCC5)ncc34)c(F)c2)CC1 [Compound 7S]")
1.11
>>> obs_value("O=C(Nc1ccc(F)cc1)C1(C(=O)Nc2ccc(Oc3ccnc4cc(OCCCN5CCOCC5)ncc34)c(F)c2)CC1 [Compound 8S]")
1.17

###

- protocol.text: Pharmacokinetic test in rats
- Type: in vivo, Sprague-Dawley rats
- condition.set: male, Sprague-Dawley, rat, plasma, po, 10 mg/kg, intragastric (gavage) 10 mg/kg, mean, read-out: MRT
Listing of entries alongside the reported MRT.
measured.quantity: MRT

>>> obs_value("O=C(Nc1ccc(F)cc1)C1(C(=O)Nc2ccc(Oc3ccnc4cc(OCCN5CCOCC5)ncc34)c(F)c2)CC1 [Compound 7S]")
"2.6 h"
>>> obs_value("O=C(Nc1ccc(F)cc1)C1(C(=O)Nc2ccc(Oc3ccnc4cc(OCCCN5CCOCC5)ncc34)c(F)c2)CC1 [Compound 8S]")
"2.71 h"

###

- protocol.text: Pharmacokinetic test in rats
- Format: in vivo, Sprague-Dawley rats
- condition.set: male, Sprague-Dawley, plasma; rat, intravenous 5 mg/kg, mean
- Experimental: 14 male Sprague-Dawley rats, weigh 200-220 g, were randomly divided into 4 groups with 4/3 in each group. The rats were intragastrically and intravenously administered with compound 7S and 8S respectively. […] The concentrations of the compounds in rat plasma were measured by LC/MS/MS. Pharmacokinetic parameters after administration were calculated using the non-compartmental model of the Phoenix 1.3 software (Pharsight, U.S.A.). Peak concentration Cmax and peak time Tmax were the measured values; […]
measured.quantity: clearance (mL/min/kg)

>>> obs_value("O=C(Nc1ccc(F)cc1)C1(C(=O)Nc2ccc(Oc3ccnc4cc(OCCN5CCOCC5)ncc34)c(F)c2)CC1")
5.23
>>> obs_value("O=C(Nc1ccc(F)cc1)C1(C(=O)Nc2ccc(Oc3ccnc4cc(OCCCN5CCOCC5)ncc34)c(F)c2)CC1")
9.58

###

Listing of entries alongside the reported pIC50.
- system: c-Met kinase (Homo sapiens, UniProt P08581)
- Construct: c-Met kinase domain recombinant protein diluted with 49 μL of the reaction buffer was added
- protocol.text: Inhibitory effect on c-Met kinase activity at molecular level (ELISA);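 also: recombinant c-Met kinase domain with 5 µM ATP, 1 h at 37 °C, substrate phosphorylation detected by anti-phosphotyrosine PY99 ELISA at 490 nm versus DMSO negative control, ATP-free wells as blank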
pIC50: −log10 of the molar value.
measured.quantity: pIC50

>>> obs_value("O=C(Nc1ccc(F)cc1)C1(C(=O)Nc2ccc(Oc3ccnc4cc(-c5cnn(C6CCNCC6)c5)ncc34)c(F)c2)CC1 [Compound 42S]")
"8.00 to 9.00"
>>> obs_value("CS(=O)(=O)n1cc(-c2cc3nccc(Oc4ccc(NC(=O)C5(C(=O)Nc6ccc(F)cc6)CC5)cc4F)c3cn2)cn1 [Compound 40S]")
"8.00 to 9.00"
>>> obs_value("Nc1ccc(Oc2ccnc3c(Br)c(OCCN4CCOCC4)ncc23)c(F)c1 [Compound 4S]")
"5.00 to 6.00"
>>> obs_value("O=C(Nc1ccc(F)cc1)C1(C(=O)Nc2ccc(Oc3ccnc4ncc(N5CCOCC5)nc34)c(F)c2)CC1 [Compound 58S]")
"6.00 to 7.00"
>>> obs_value("CN1CCN(CCOc2ncc3c(Oc4ccc(NC(=O)C5(C(=O)Nc6ccc(F)cc6)CC5)cc4F)ccnc3c2Br)CC1 [Compound 10S]")
"7.00 to 8.00"
>>> obs_value("O=C(Nc1ccc(F)cc1)C1(C(=O)Nc2ccc(Oc3ccnc4nc(NCCCN5CCOCC5)cnc34)c(F)c2)CC1 [Compound 62S]")
"7.00 to 8.00"
>>> obs_value("O=C1COCCN1CCOc1cc2nccc(Oc3ccc(NC(=O)C4(C(=O)Nc5ccc(F)cc5)CC4)cc3F)c2cn1 [Compound 37S]")
"8.00 to 9.00"
>>> obs_value("CC(C)N1CCC(n2cc(-c3cc4nccc(Oc5ccc(NC(=O)C6(C(=O)Nc7ccc(F)cc7)CC6)cc5F)c4cn3)cn2)CC1 [Compound 43S]")
"8.00 to 9.00"
>>> obs_value("Cc1noc(C)c1-c1cc2nccc(Oc3ccc(NC(=O)C4(C(=O)Nc5ccc(F)cc5)CC4)cc3F)c2cn1 [Compound 45S]")
"6.00 to 7.00"
>>> obs_value("O=C(Nc1ccc(Oc2ccnc3c(Br)c(OCCN4CCOCC4)ncc23)c(F)c1)c1c[nH]cc(-c2ccc(F)cc2)c1=O [Compound 21S]")
"7.00 to 8.00"
>>> obs_value("COc1cc2nccc(Oc3ccc(NC(=O)C4(C(=O)Nc5ccc(F)cc5)CC4)cc3F)c2cn1 [Compound 3S]")
"8.00 to 9.00"
>>> obs_value("O=C(Nc1ccc(Oc2ccnc3cc(OCCN4CCOCC4)ncc23)c(F)c1)c1c[nH]cc(-c2ccccc2)c1=O [Compound 20S]")
"8.00 to 9.00"
>>> obs_value("O=C(Nc1ccc(F)cc1)C1(C(=O)Nc2ccc(Oc3ccnc4cc(N5CCOCC5)ncc34)c(F)c2)CC1 [Compound 27S]")
"7.00 to 8.00"
>>> obs_value("O=C(Nc1ccc(F)cc1)C1(C(=O)Nc2ccc(Oc3ccnc4cc(-c5ccsn5)ncc34)c(F)c2)CC1 [Compound 52S]")
"6.00 to 7.00"
